- Target Or Test System: T1, cynomolgus EpCAM protein (cynomolgus monkey)
- T1 construct: biotinylated in the Octet assays; also called cy EpCAM; cynomolgus monkey EpCAM
- T1 sequence (Q1WER1 24-265): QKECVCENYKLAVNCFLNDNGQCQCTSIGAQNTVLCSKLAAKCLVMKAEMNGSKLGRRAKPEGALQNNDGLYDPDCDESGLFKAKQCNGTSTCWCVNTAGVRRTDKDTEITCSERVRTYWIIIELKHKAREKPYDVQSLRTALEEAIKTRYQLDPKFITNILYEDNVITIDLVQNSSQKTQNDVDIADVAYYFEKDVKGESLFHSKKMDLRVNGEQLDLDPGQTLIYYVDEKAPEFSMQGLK
- Experimental Details: colorimetric ELISA
Cynomolgus EpCAM/Control listing for selected binders.
Readout Label: Cynomolgus EpCAM/Control (ratio)

INSERT INTO measurements (binder, readout_label, unit_info, endpoint_value) VALUES
  ('Llama anti-EpCAM single domain antibody EPL15 (VHH, E. coli periplasmic extract) VHH: QVQLQESGGGSVLAGGSLRLSCAASGFTFSSYYMSWVRQAPGKGLEWVSGIHYTGDWTNYADSVKGRFTISRDNAKNELYLEMNNLKPEDTAVYYCARGSDKGQGTQVTVSS', 'Cynomolgus EpCAM/Control', 'ratio', 35),
  ('Llama anti-EpCAM single domain antibody EPL118 (VHH, E. coli periplasmic extract) VHH: QVQLQESGGGLVQAGGSLRLSCAASGFIFRAASMGWFRQSPGNERELVATVSSGDFTNYADSVKGRFTISRDNAKNTVYLQMNSLKPEDTAVYFCGATFVRSDGHHTIYGQGTQVTVSS', 'Cynomolgus EpCAM/Control', 'ratio', 4),
  ('Llama anti-EpCAM single domain antibody EPL86 (VHH, E. coli periplasmic extract) VHH: QVQLQESGGGLVQPGGSLRLSCAASGFTFSDWAMSWVRQAPGKGLEWVSGIHYGDHTTHYADFVKGRFTISRDDAKNTLYLQMNSLKPEDTAVYYCARGSTKGQGTQVTVSS', 'Cynomolgus EpCAM/Control', 'ratio', 31),
  ('Llama anti-EpCAM single domain antibody EPL2 (VHH, E. coli periplasmic extract) VHH: QVQLQESGGGLVQPGGSLRLSCAASESISSFIAVGWYRQAPGKERELVAGINRSGFTYYTDSVKGRFSISRDNAKNTVLLQMTSLKPEDTAVYYCNAGGLYFSNAYTQGDYWGQGTQVTVSS', 'Cynomolgus EpCAM/Control', 'ratio', 24);
